Tested on: MDR1-MDCK cell monolayers
Conditions: dog, MDCK-MDR1, 120 min, 5 μM, pH 7.4
REPORTED PROPERTY: MDCK-MDR1: % Recov B-A (%)
Give the value, in units of %, as a plain number.

Given the compound Oc1cc(-n2ccnn2)c(F)cc1-c1cnc(N(C2CC2)[C@@H]2CC3CC[C@H](N3)[C@@H]2F)cn1 (single isomer, unassigned) , write its reported MDCK-MDR1: % Recov B-A (%).
83

Given the compound COc1cc(-c2ccc(-c3cnc(N(C4CC4)[C@H]4C[C@@H]5CCC(N5)[C@H]4F)cn3)c(O)c2)cc(F)n1 (single isomer, unassigned) , write its reported MDCK-MDR1: % Recov B-A (%).
49

Given the compound O=c1cc(-c2cc(O)c(-c3cnc(N(C4CC4)[C@H]4C[C@@H]5CCC(N5)[C@H]4F)cn3)cc2F)ccn1CF (single isomer, unassigned) , write its reported MDCK-MDR1: % Recov B-A (%).
81

Given the compound COc1cc(-c2ccc(-c3cnc(N(C4CC4)[C@@H]4CC5CC[C@H](N5)[C@@H]4F)cn3)c(O)c2)ncn1 (single isomer, unassigned) , write its reported MDCK-MDR1: % Recov B-A (%).
51

Given the compound CN(c1cnc(-c2ccc(-c3cnn(C)c3)cc2O)cn1)[C@@H]1CC2CC[C@H](N2)[C@@H]1F (single isomer, unassigned) , write its reported MDCK-MDR1: % Recov B-A (%).
79

Given the compound CN(c1cnc(-c2cc(F)c(-c3cn[nH]c3)cc2O)cn1)[C@@H]1CC2CC(F)(F)[C@@H](C1)N2 (single isomer, unassigned) , write its reported MDCK-MDR1: % Recov B-A (%).
71

Given the compound COc1cc(-c2ccc(-c3cnc(N(C)[C@@H]4C[C@@]5(C)CCC[C@](C)(N5)[C@@H]4F)cn3)c(O)c2)cnn1 , write its reported MDCK-MDR1: % Recov B-A (%).
42

Given the compound COc1cc(-c2cc(O)c(-c3cnc(N(C)[C@@H]4CC5CC(F)(F)[C@@H](C4)N5)cn3)cc2F)cnn1 (single isomer, unassigned) , write its reported MDCK-MDR1: % Recov B-A (%).
74

Given the compound Cn1cnc(-c2ccc(-c3cnc(N(C4CC4)[C@@H]4CC5CC[C@H](N5)[C@@H]4F)cn3)c(O)c2)cc1=O (single isomer, unassigned) , write its reported MDCK-MDR1: % Recov B-A (%).
85

Given the compound COc1cc(-c2ccc(-c3cnc(N(C)[C@H]4C[C@@H]5CCC(N5)[C@H]4F)cn3)c(O)c2)ccn1 (single isomer, unassigned) , write its reported MDCK-MDR1: % Recov B-A (%).
49

Given the compound CN(c1cnc(-c2ccc(-c3ccn(CF)c(=O)c3)cc2O)cn1)[C@H]1C[C@@H]2CCC(N2)[C@H]1F (single isomer, unassigned) , write its reported MDCK-MDR1: % Recov B-A (%).
80

Given the compound C[C@]12CC[C@](C)(N1)[C@H](F)[C@H](Oc1cnc(-c3ccc(-c4cn[nH]c4)cc3O)cn1)C2 , write its reported MDCK-MDR1: % Recov B-A (%).
79
